// data source = the supplement of paper PMC11246515

Could you please report measured total protein half-life in vivo for the items listed next?
- test protocol: total protein half-life in vivo (active degradation + dilution); higher = more stable protein
- experimental setup: wild type E. coli NCM3722; growth: C-lim chemostat; doubling time 3 h
Dear colleague, please return just the value in h, with no unit written.

I am curious: what total protein half-life in vivo value has been reported for MKQHQSADNSQGQLYIVPTPIGNLADITQRALEVLQAVDLIAAEDTRHTGLLLQHFGINARLFALHDHNEQQKAETLLAKLQEGQNIALVSDAGTPLINDPGYHLVRTCREAGIRVVPLPGPCAAITALSAAGLPSDRFCYEGFLPAKSKGRRDALKAIEAEPRTLIFYESTHRLLDSLEDIVAVLGESRYVVLARELTKTWETIHGAPVGELLAWVKEDENRRKGEMVLIVEGHKAQEEDLPADALRTLALLQAELPLKKAAALAAEIHGVKKNALYKYALEQQG ?
3.41

Can you check MEKGTVKWFNNAKGFGFICPEGGGEDIFAHYSTIQMDGYRTLKAGQSVQFDVHQGPKGNHASVIVPVEVEAAVA [P0A968] next?
0.333

Let us now turn to MSDTNYAVIYDLHSHTTASDGCLTPEALVHRAVEMRVGTLAITDHDTTAAIAPAREEISRSGLALNLIPGVEISTVWENHEIHIVGLNIDITHPLMCEFLAQQTERRNQRAQLIAERLEKAQIPGALEGAQRLAQGGAVTRGHFARFLVECGKASSMADVFKKYLARGKTGYVPPQWCTIEQAIDVIHHSGGKAVLAHPGRYNLSAKWLKRLVAHFAEHHGDAMEVAQCQQSPNERTQLAALARQHHLWASQGSDFHQPCPWIELGRKLWLPAGVEGVWQLWEQPQNTTEREL
1.42

* * *

- test protocol: total protein half-life in vivo (active degradation + dilution); higher = more stable protein
- experimental setup: E. coli NCM3722 delta-clpP delta-lon delta-hslV; growth: N-lim chemostat; doubling time 6 h
test readout: total protein half-life in vivo (h)
Your answer should be a plain number; it is taken to be in h.

Reported total protein half-life in vivo for MALPILLDCDPGHDDAIAIVLALASPELDVKAITSSAGNQTPEKTLRNVLRMLTLLNRTDIPVAGGAVKPLMRELIIADNVHGESGLDGPALPEPTFAPQNCTAVELMAKTLRESAEPVTIVSTGPQTNVALLLNSHPELHSKIARIVIMGGAMGLGNWTPAAEFNIYVDPEAAEIVFQSGIPVVMAGLDVTHKAQIHVEDTERFRAIGNPVSTIVAELLDFFLEYHKDEKWGFVGAPLHDPCTIAWLLKPELFTSVERWVGVETQGKYTQGMTVVDYYYLTGNKPNATVMVDVDRQGFVDLLADRLKFYA : what is it?
4.98

Likewise for MKKVLLIILLLLVVLGIAAGVGVWKVRHLADSKLLIKEETIFTLKPGTGRLALGEQLYADKIINRPRVFQWLLRIEPDLSHFKAGTYRFTPQMTVREMLKLLESGKEAQFPLRLVEGMRLSDYLKQLREAPYIKHTLSDDKYATVAQALELENPEWIEGWFWPDTWMYTANTTDVALLKRAHKKMVKAVDSAWEGRADGLPYKDKNQLVTMASIIEKETAVASERDKVASVFINRLRIGMRLQTDPTVIYGMGERYNGKLSRADLETPTAYNTYTITGLPPGAIATPGADSLKAAAHPAKTPYLYFVADGKGGHTFNTNLASHNKSVQDYLKVLKEKNAQ ?
6.33

* * *

Task for the reader: assign each of the following sequences its reported total protein half-life in vivo.
- test protocol: total protein half-life in vivo (active degradation + dilution); higher = more stable protein
- experimental setup: wild type E. coli NCM3722; growth: N-lim chemostat; doubling time 6 h
Give the value, in units of h, as a plain number.

Could you tell me which total protein half-life in vivo is on file for MSDERYQQRQQRVKEKVDARVAQAQDERGIIIVFTGNGKGKTTAAFGTATRAVGHGKKVGVVQFIKGTWPNGERNLLEPHGVEFQVMATGFTWDTQNRESDTAACREVWQHAKRMLADSSLDMVLLDELTYMVAYDYLPLEEVVQALNERPHQQTVIITGRGCHRDILELADTVSELRPVKHAFDAGVKAQIGIDY [P0A9H5] ?
4.23

Would you kindly repeat that for MSITLSDSAAARVNTFLANRGKGFGLRLGVRTSGCSGMAYVLEFVDEPTPEDIVFEDKGVKVVVDGKSLQFLDGTQLDFVKEGLNEGFKFTNPNVKDECGCGESFHV [P0AAC8] ?
1.14

What would you report for MKNSKAILQVPGTMKIISAEIPVPKEDEVLIKVEYVGICGSDVHGFESGPFIPPKDPNQEIGLGHECAGTVVAVGSRVRKFKPGDRVNIEPGVPCGHCRYCLEGKYNICPDVDFMATQPNYRGALTHYLCHPESFTYKLPDNMDTMEGALVEPAAVGMHAAMLADVKPGKKIIILGAGCIGLMTLQACKCLGATEIAVVDVLEKRLAMAEQLGATVVINGAKEDTIARCQQFTEDMGADIVFETAGSAVTVKQAPYLVMRGGKIMIVGTVPGDSAINFLKINREVTIQTVFRYANRYPVTIEAISSGRFDVKSMVTHIYDYRDVQQAFEESVNNKRDIIKGVIKISD ?
3.39

* * *

Consider the following sequences; for each one, report its total protein half-life in vivo.
- test protocol: total protein half-life in vivo (active degradation + dilution); higher = more stable protein
- experimental setup: wild type E. coli NCM3722; growth: N-lim chemostat; doubling time 6 h

Requested field: total protein half-life in vivo. Item: MQKEQLSALMDGETLDSELLNELAHNPEMQKTWESYHLIRDSMRGDTPEVLHFDISSRVMAAIEEEPVRQPATLIPEAQPAPHQWQKMPFWQKVRPWAAQLTQMGVAACVSLAVIVGVQHYNGQSETSQQPETPVFNTLPMMGKASPVSLGVPSEATANNGQQQQVQEQRRRINAMLQDYELQRRLHSEQLQFEQAQTQQAAVQVPGIQTLGTQSQ [P0AFX7]
0.895 h

# repeat for MVTFHTNHGDIVIKTFDDKAPETVKNFLDYCREGFYNNTIFHRVINGFMIQGGGFEPGMKQKATKEPIKNEANNGLKNTRGTLAMARTQAPHSATAQFFINVVDNDFLNFSGESLQGWGYCVFAEVVDGMDVVDKIKGVATGRSGMHQDVPKEDVIIESVTVSE
4.51 h

Record: MPGLKITLLQQPLVWMDGPANLRHFDRQLEGITGRDVIVLPEMFTSGFAMEAAASSLAQDDVVNWMTAKAQQCNALIAGSVALQTESGSVNRFLLVEPGGTVHFYDKRHLFRMADEHLHYKAGNARVIVEWRGWRILPLVCYDLRFPVWSRNLNDYDLALYVANWPAPRSLHWQALLTARAIENQAYVAGCNRVGSDGNGCHYRGDSRVINPQGEIIATADAHQATRIDAELSMAALREYREKFPAWQDADEFRLW
4.42 h

Ok, now MIYLRKANERGHANHGWLDSWHTFSFANYYDPNFMGFSALRVINDDVIEAGQGFGTHPHKDMEILTYVLEGTVEHQDSMGNKEQVPAGEFQIMSAGTGIRHSEYNPSSTERLHLYQIWIMPEENGITPRYEQRRFDAVQGKQLVLSPDARDGSLKVHQDMELYRWALLKDEQSVHQIAAERRVWIQVVKGNVTINGVKASTSDGLAIWDEQAISIHADSDSEVLLFDLPPV
4.51 h

Repeat with MATNAKPVYKRILLKLSGEALQGTEGFGIDASILDRMAQEIKELVELGIQVGVVIGGGNLFRGAGLAKAGMNRVVGDHMGMLATVMNGLAMRDALHRAYVNARLMSAIPLNGVCDSYSWAEAISLLRNNRVVILSAGTGNPFFTTDSAACLRGIEIEADVVLKATKVDGVFTADPAKDPTATMYEQLTYSEVLEKELKVMDLAAFTLARDHKLPIRVFNMNKPGALRRVVMGEKEGTLITE [P0A7E9]
4.93 h

Now consider MNIYTFDFDEIESQEDFYRDFSQTFGLAKDKVRDLDSLWDVLMNDVLPLPLEIEFVHLGEKTRRRFGALILLFDEAEEELEGHLRFNVRH .
4.83 h

Moving on to MSKSDVFHLGLTKNDLQGATLAIVPGDPDRVEKIAALMDKPVKLASHREFTTWRAELDGKPVIVCSTGIGGPSTSIAVEELAQLGIRTFLRIGTTGAIQPHINVGDVLVTTASVRLDGASLHFAPLEFPAVADFECTTALVEAAKSIGATTHVGVTASSDTFYPGQERYDTYSGRVVRHFKGSMEEWQAMGVMNYEMESATLLTMCASQGLRAGMVAGVIVNRTQQEIPNAETMKQTESHAVKIVVEAARRLL
5.75 h

* * *

- test protocol: total protein half-life in vivo (active degradation + dilution); higher = more stable protein
- experimental setup: wild type E. coli NCM3722; growth: P-lim chemostat; doubling time 6 h
For each of the sequences below, state its total protein half-life in vivo.
State the answer as a number, implicitly in h.

Which value of total protein half-life in vivo has been reported for MTIKLIVGLANPGAEYAATRHNAGAWFVDLLAERLRAPLREEAKFFGYTSRVTLGGEDVRLLVPTTFMNLSGKAVAAMASFFRINPDEILVAHDELDLPPGVAKFKLGGGHGGHNGLKDIISKLGNNPNFHRLRIGIGHPGDKNKVVGFVLGKPPVSEQKLIDEAIDEAARCTEMWFTDGLTKATNRLHAFKAQ [P0A7D1] in the records?
5.91

# repeat for MFKKSVLFATLLSGVMAFSTNADDKIILKHISVSSVSASPTVLEDTIADIARKYNASSWKVTSMRIDNNSTATAVLYK
5.33

// same read-out, input: MNMKTIEDVFIHLLSDTYSAEKQLTRALAKLARATSNEKLSQAFHAHLEETHGQIERIDQVVESESNLKIKRMKCVAMEGLIEEANEVIESTEKNEVRDAALIAAAQKVEHYEIASYGTLATLAEQLGYRKAAKLLKETLEEEKATDIKLTDLAINNVNKKAENKA
5.29

Try this sequence too: MDKFDANRRKLLALGGVALGAAILPTPAFATLSTPRPRILTLNNLHTGESIKAEFFDGRGYIQEELAKLNHFFRDYRANKIKSIDPGLFDQLYRLQGLLGTRKPVQLISGYRSIDTNNELRARSRGVAKKSYHTKGQAMDFHIEGIALSNIRKAALSMRAGGVGYYPRSNFVHIDTGPARHW [P0AB06]
1.82

Same question for MAKNYYDITLALAGICQSARLVQQLAHQGHCDADALHVSLNSIIDMNPSSTLAVFGGSEANLRVGLETLLGVLNASSRQGLNAELTRYTLSLMVLERKLSSAKGALDTLGNRINGLQRQLEHFDLQSETLMSAMAAIYVDVISPLGPRIQVTGSPAVLQSPQVQAKVRATLLAGIRAAVLWHQVGGGRLQLMFSRNRLTTQAKQILAHLTPEL please.
6.04

Similarly, MSEKYIVTWDMLQIHARKLASRLMPSEQWKGIIAVSRGGLVPGALLARELGIRHVDTVCISSYDHDNQRELKVLKRAEGDGEGFIVIDDLVDTGGTAVAIREMYPKAHFVTIFAKPAGRPLVDDYVVDIPQDTWIEQPWDMGVVFVPPISGR [P0A9M5] ?
6.07

Check MSKKIAVLITDEFEDSEFTSPADEFRKAGHEVITIEKQAGKTVKGKKGEASVTIDKSIDEVTPAEFDALLLPGGHSPDYLRGDNRFVTFTRDFVNSGKPVFAICHGPQLLISADVIRGRKLTAVKPIIIDVKNAGAEFYDQEVVVDKDQLVTSRTPDDLPAFNREALRLLGA too.
5.12

Next sequence: MPLLKLWAGSLVMLAAVSLPLQAASPVKVGSKIDTEGALLGNIILQVLESHGVPTVNKVQLGTTPVVRGAITSGELDIYPEYTGNGAFFFKDENDAAWKNAQQGYEKVKKLDSEHNKLIWLTPAPANNTWTIAVRQDVAEKNKLTSLADLSRYLQEGGTFKLAASAEFIERADALPAFEKAYGFKLGQDQLLSLAGGDTAVTIKAAAQQTSGVNAAMAYGTDGPVAALGLQTLSDPQGVQPIYAPAPVVRESVLREYPQMAQWLQPVFASLDAKTLQQLNASIAVEGLDAKKVAADYLKQKGWTK
6.08
